assay-explanation: gradient 5% acetonitrile 3 min, to 50% in 2 min, to 85% in 15 min, held 3 min, 100 µL/min
measurement-context: column: Zorbax Extend-C18 2.1 x 50 mm; eluents: water / acetonitrile, 0.1% formic acid
recorded-endpoint: RP-LC retention time (s)

> print(dat)
                                    compound  result.number
 1  CCCn1c(CCc2ccccc2NS(=O)(=O)c2ccc3c(c2)OCCO3)nc2ccccc21            763
 2  NS(=O)(=O)c1ccc(NC(=O)C2CCCN(c3ccc(=O)n(-c4cccc(F)c4)n3)C2)cc1 (stereo not given)            703
 3  Cc1ccc(C2Cn3cnc(C(=O)N4CCC(C(=O)NC5CCCC5)CC4)c3CO2)cc1 (stereo not given)            749
 4  CCC1CN2C=Nc3oc(C)c(C(=O)Nc4ccc5c(c4)OCO5)c3C2=N1 (stereo not given)            632
 5  Cc1oc(-c2ccc(C(=O)NCCN3CCCC3)cc2)nc1COc1ccccc1            698
 6     Cc1cccc(Nc2c(-c3ccccc3)nc3cnccn23)c1C            981
 7  O=c1c2cc(-c3cccs3)nn2cnn1Cc1nc(-c2ccccc2)no1           1050
 8  Cc1ccc2c(NC(=O)C(c3ccccc3)c3ccccc3)noc2n1            785
 9  COc1ccccc1NC(=O)c1[nH]c2cc(C)sc2c1CN(C)C            678
10  CCN1CCCC1CN(CC(=O)N1CCNCC1)S(=O)(=O)c1cc(Cl)ccc1OC (stereo not given)            573
11            Cc1cc(NC(=O)c2ccccc2)c(Cl)cc1N            797
12  O=C(CN1CCN(Cc2ccccc2)C(=O)C1=O)N1CCN(c2cccc(Cl)c2)CC1            828
13     Cc1ccc(-c2cc(C(=O)NCCN(C)C)n(C)c2)cc1            657
14  Cc1ccc(CC(=O)Nc2c(C(=O)N3CCN(c4ccccn4)CC3)oc3ccccc23)cc1            716
15  CCNC(=O)c1cnn(-c2cc(-c3nc(CC)no3)ccn2)c1C            806
